List of LD50 (PBMCs) values.
System: human peripheral blood mononuclear cells (PBMCs)
Assay type: cell-based
test.context: 72 h
Express the result in µg/mL but write the number alone.

Study these solved cases before continuing.
Qu. Fill in the blank: the reported LD50 (PBMCs) of CC(=NN=C1SC(=C2C(=O)Nc3ccccc32)C(=O)N1C1CCCCC1)c1cc2ccccc2o1 [Compound 6d] is ____.
Ans. 14.32

Qu. Fill in the blank: the reported LD50 (PBMCs) of COc1ccc(-c2nn(-c3ccccc3)cc2C=C2SC(=NN=C(C)c3nc4ccccc4[nH]3)N(c3ccc(Cl)cc3)C2=O)cc1 [Compound 5r] is ____.
Ans. 44.00

Qu. Fill in the blank: the reported LD50 (PBMCs) of CC(=NN=C1SC(=Cc2cn(-c3ccccc3)nc2-c2ccc(Cl)cc2)C(=O)N1c1ccc(Cl)cc1)c1nc2ccccc2[nH]1 [Compound 5q] is ____.
Ans. 1246.96

Qu. Fill in the blank: the reported LD50 (PBMCs) of CC(=NN=C1SC(=Cc2cn(-c3ccccc3)nc2-c2ccccc2)C(=O)N1C1CCCCC1)c1cc2ccccc2o1 [Compound 5j] is ____.
Ans. 134.00

Qu. Fill in the blank: the reported LD50 (PBMCs) of CC(=NN=C1SC(=Cc2cn(-c3ccccc3)nc2-c2ccccc2)C(=O)N1c1ccc(Cl)cc1)c1nc2ccccc2[nH]1 [Compound 5p] is ____.
Ans. 120.46

New cases:
Qu. Fill in the blank: the reported LD50 (PBMCs) of COc1ccc(-c2nn(-c3ccccc3)cc2C=C2SC(=NN=C(C)c3cc4ccccc4o3)N(C3CCCCC3)C2=O)cc1 [Compound 5l] is ____.
Ans. 46.89

Qu. Fill in the blank: the reported LD50 (PBMCs) of COc1ccc(-c2nn(-c3ccccc3)cc2C=C2SC(=NN=C(C)c3cc4ccccc4o3)N(c3ccc(Cl)cc3)C2=O)cc1 [Compound 5f] is ____.
Ans. 259.71

Qu. Fill in the blank: the reported LD50 (PBMCs) of COc1ccc(N2C(=O)C(=C3C(=O)Nc4ccccc43)SC2=NN=C(C)c2cc3ccccc3o2)cc1 [Compound 6c] is ____.
Ans. 28.67

###

System: human peripheral blood mononuclear cells (PBMCs)
Type: cell-based
test.context: 72 h
List of LD0 values.
Express the result in µg/mL but write the number alone.

Qu. Fill in the blank: the reported LD0 of COc1ccc(-c2nn(-c3ccccc3)cc2C=C2SC(=NN=C(C)c3cc4ccccc4o3)N(c3ccc(OC)cc3)C2=O)cc1 [Compound 5i] is ____.
Ans. 7.60

Qu. Fill in the blank: the reported LD0 of COc1ccc(-c2nn(-c3ccccc3)cc2C=C2SC(=NN=C(C)c3cc4ccccc4o3)N(c3ccc(Cl)cc3)C2=O)cc1 [Compound 5f] is ____.
Ans. 5.83

Qu. Fill in the blank: the reported LD0 of CC(=NN=C1SC(=C2C(=O)Nc3ccccc32)C(=O)N1c1ccc(Cl)cc1)c1nc2ccccc2[nH]1 [Compound 6f] is ____.
Ans. 253.34

Qu. Fill in the blank: the reported LD0 of CC(=NN=C1SC(=Cc2cn(-c3ccccc3)nc2-c2ccc(Cl)cc2)C(=O)N1c1ccccc1)c1cc2ccccc2o1 [Compound 5b] is ____.
Ans. 5.83

Qu. Fill in the blank: the reported LD0 of COc1ccc(N2C(=O)C(=Cc3cn(-c4ccccc4)nc3-c3ccccc3)SC2=NN=C(C)c2cc3ccccc3o2)cc1 [Compound 5g] is ____.
Ans. 8.88

New cases:
Qu. Fill in the blank: the reported LD0 of COc1ccc(N2C(=O)C(=C3C(=O)Nc4ccccc43)SC2=NN=C(C)c2cc3ccccc3o2)cc1 [Compound 6c] is ____.
Ans. 11.41

Qu. Fill in the blank: the reported LD0 of CC(=NN=C1SC(=Cc2cn(-c3ccccc3)nc2-c2ccc(Cl)cc2)C(=O)N1C1CCCCC1)c1cc2ccccc2o1 [Compound 5k] is ____.
Ans. 33.29

###

Test system: human peripheral blood mononuclear cells (PBMCs)
Format: cell-based
test.context: 72 h
Protocol: The safe compounds on RBCs (5a-g, 5i-l, 5p-r, 5v-w, 6b-g) were subjected to the in vitro cytotoxicity assay on human peripheral blood mononuclear cells (PBMCs). Viability of cells was measured using neutral red uptake assay as described by Borenfreund and Puerner to determine the concentrations of each compound that were not cytotoxic. […]
List of (LD0) PBMCs values.
Express the result in µg/mL but write the number alone.

Qu. Fill in the blank: the reported (LD0) PBMCs of CC(=NN=C1SC(=C2C(=O)Nc3ccccc32)C(=O)N1C1CCCCC1)c1cc2ccccc2o1 is ____.
Ans. 5.21

Qu. Fill in the blank: the reported (LD0) PBMCs of COc1ccc(N2C(=O)C(=C3C(=O)Nc4ccccc43)SC2=NN=C(C)c2cc3ccccc3o2)cc1 is ____.
Ans. 11.41

Qu. Fill in the blank: the reported (LD0) PBMCs of CC(=NN=C1SC(=C2C(=O)Nc3ccccc32)C(=O)N1c1ccc(Cl)cc1)c1nc2ccccc2[nH]1 is ____.
Ans. 253.34

Qu. Fill in the blank: the reported (LD0) PBMCs of COc1ccc(-c2nn(-c3ccccc3)cc2C=C2SC(=NN=C(C)c3cc4ccccc4o3)N(c3ccc(Cl)cc3)C2=O)cc1 is ____.
Ans. 5.83

Qu. Fill in the blank: the reported (LD0) PBMCs of COc1ccc(-c2nn(-c3ccccc3)cc2C=C2SC(=NN=C(C)c3cc4ccccc4o3)N(c3ccc(OC)cc3)C2=O)cc1 is ____.
Ans. 7.60

Qu. Fill in the blank: the reported (LD0) PBMCs of CC(=NN=C1SC(=Cc2cn(-c3ccccc3)nc2-c2ccc(Cl)cc2)C(=O)N1c1ccc(Cl)cc1)c1nc2ccccc2[nH]1 is ____.
Ans. 190.45

Qu. Fill in the blank: the reported (LD0) PBMCs of COc1ccc(N2C(=O)C(=C3C(=O)Nc4ccccc43)SC2=NN=C(C)c2nc3ccccc3[nH]2)cc1 is ____.
Ans. 14.41

###

Test system: human HCC cell line HepG2
assay.notes: cells
Format: cell-based
test.context: human, 72 h
// returns f unless Safe doses (100% viability of HepG2) LD0 is strictly below 20 µg/mL, in which case t

Examples from the recorded data:
Qu. Check if Safe doses (100% viability of HepG2) LD0 falls below 20 µg/mL for COc1ccc(-c2nn(-c3ccccc3)cc2C=C2SC(=NN=C(C)c3cc4ccccc4o3)N(c3ccccc3)C2=O)cc1 .
Ans. t

Qu. Check if Safe doses (100% viability of HepG2) LD0 falls below 20 µg/mL for CC(=NN=C1SC(=C2C(=O)Nc3ccccc32)C(=O)N1c1ccccc1)c1nc2ccccc2[nH]1 .
Ans. t

Qu. Check if Safe doses (100% viability of HepG2) LD0 falls below 20 µg/mL for CC(=NN=C1SC(=Cc2cn(-c3ccccc3)nc2-c2ccccc2)C(=O)N1c1ccc(Cl)cc1)c1cc2ccccc2o1 .
Ans. f

Qu. Check if Safe doses (100% viability of HepG2) LD0 falls below 20 µg/mL for CC(=NN=C1SC(=Cc2cn(-c3ccccc3)nc2-c2ccccc2)C(=O)N1c1ccccc1)c1cc2ccccc2o1 .
Ans. t

Qu. Check if Safe doses (100% viability of HepG2) LD0 falls below 20 µg/mL for CC(=NN=C1SC(=Cc2cn(-c3ccccc3)nc2-c2ccc(Cl)cc2)C(=O)N1c1ccc(Cl)cc1)c1cc2ccccc2o1 .
Ans. f

Qu. Check if Safe doses (100% viability of HepG2) LD0 falls below 20 µg/mL for CC(=NN=C1SC(=C2C(=O)Nc3ccccc32)C(=O)N1c1ccc(Cl)cc1)c1nc2ccccc2[nH]1 .
Ans. f

Turning now to a further compound:
Qu. Check if Safe doses (100% viability of HepG2) LD0 falls below 20 µg/mL for COc1ccc(-c2nn(-c3ccccc3)cc2C=C2SC(=NN=C(C)c3cc4ccccc4o3)N(C3CCCCC3)C2=O)cc1 .
Ans. t

###

Tested on: human peripheral blood mononuclear cells (PBMCs)
Format: cell-based
test.context: 72 h
// returns not met unless (LD0) PBMCs is strictly below 10 µg/mL, in which case met

Qu. Check if (LD0) PBMCs falls below 10 µg/mL for COc1ccc(N2C(=O)C(=Cc3cn(-c4ccccc4)nc3-c3ccccc3)SC2=NN=C(C)c2cc3ccccc3o2)cc1 [Compound 5g] .
Ans. met

Qu. Check if (LD0) PBMCs falls below 10 µg/mL for CC(=NN=C1SC(=Cc2cn(-c3ccccc3)nc2-c2ccc(Cl)cc2)C(=O)N1C1CCCCC1)c1cc2ccccc2o1 [Compound 5k] .
Ans. not met

New cases:
Qu. Check if (LD0) PBMCs falls below 10 µg/mL for COc1ccc(-c2nn(-c3ccccc3)cc2C=C2SC(=NN=C(C)c3cc4ccccc4o3)N(C3CCCCC3)C2=O)cc1 [Compound 5l] .
Ans. met

Qu. Check if (LD0) PBMCs falls below 10 µg/mL for CC(=NN=C1SC(=C2C(=O)Nc3ccccc32)C(=O)N1c1ccccc1)c1nc2ccccc2[nH]1 [Compound 6e] .
Ans. not met

Qu. Check if (LD0) PBMCs falls below 10 µg/mL for COc1ccc(-c2nn(-c3ccccc3)cc2C=C2SC(=NN=C(C)c3cc4ccccc4o3)N(c3ccccc3)C2=O)cc1 [Compound 5c] .
Ans. not met

Qu. Check if (LD0) PBMCs falls below 10 µg/mL for CC(=NN=C1SC(=Cc2cn(-c3ccccc3)nc2-c2ccc(Cl)cc2)C(=O)N1C1CCCCC1)c1nc2ccccc2[nH]1 [Compound 5w] .
Ans. not met

Qu. Check if (LD0) PBMCs falls below 10 µg/mL for CC(=NN=C1SC(=Cc2cn(-c3ccccc3)nc2-c2ccccc2)C(=O)N1C1CCCCC1)c1nc2ccccc2[nH]1 [Compound 5v] .
Ans. not met
